biological target: BIR-3 domain of cIAP-1 (Homo sapiens, UniProt Q13490); assay: Fluorescence polarization binding assay, cIAP-1 BIR-3 domain
Sequence (Q13490 266-352 limits assumed): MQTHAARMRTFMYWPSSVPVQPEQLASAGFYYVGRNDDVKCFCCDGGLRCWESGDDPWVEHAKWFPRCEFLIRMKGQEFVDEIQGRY
Residues, ends and D or L forms follow the SMILES beside them.
PROPERTY_LABEL: IC50

{"MOLECULE": "CC(C)[C@@H](NC(=O)[C@@H](C)N)C(=O)N1CCC[C@@H]1Cc1c(-c2ccc(-c3oc4ccccc4c3C[C@H]3CCCN3C(=O)[C@H](NC(=O)[C@@H](C)N)C(C)C)cc2)[nH]c2ccccc12", "PROPERTY_LABEL": "IC50", "READING": "10 to 100 nM"}
{"MOLECULE": "CN[C@@H](C)C(=O)N[C@H](C(=O)N1CCC[C@H]1Cc1c(-c2ccc(F)cc2)n(CCOCCOCCOC)c2cc(F)ccc12)C(C)(C)C", "PROPERTY_LABEL": "IC50", "READING": "10 to 100 nM"}
{"MOLECULE": "CCC(C)[C@H](NC(=O)[C@H](C)NC)C(=O)N1CCC[C@H]1Cc1c2n(c3ccc(F)cc13)CCn1c-2c(C[C@@H]2CCCN2C(=O)[C@@H](NC(=O)[C@H](C)NC)C(C)CC)c2cc(F)ccc21 (some centres unmarked)", "PROPERTY_LABEL": "IC50", "READING": "< 10 nM"}
{"MOLECULE": "CC(C)[C@H](NC(=O)[C@H](C)N)C(=O)N1CCC[C@H]1C(=O)N[C@@H](Cc1ccccc1)C(=O)O [AVPF, reference compound] (H-AVPF-OH)", "PROPERTY_LABEL": "IC50", "READING": "10 to 100 nM"}
{"MOLECULE": "CN[C@@H](C)C(=O)N[C@H](C(=O)N1C[C@@H](OC(C)=O)C[C@H]1Cc1c[nH]c2ccccc12)[C@@H](C)O", "PROPERTY_LABEL": "IC50", "READING": "> 1000 nM"}
{"MOLECULE": "CN[C@@H](C)C(=O)N[C@H](C(=O)N1C[C@@H](OC(C)=O)C[C@H]1Cc1c[nH]c2ccccc12)C(C)(C)C", "PROPERTY_LABEL": "IC50", "READING": "< 10 nM"}
{"MOLECULE": "CC(C)[C@H](NC(=O)CN)C(=O)N1C[C@@H](Oc2ccccc2)C[C@H]1Cc1coc2ccccc12", "PROPERTY_LABEL": "IC50", "READING": "< 10 nM"}
{"MOLECULE": "CN[C@@H](C)C(=O)N[C@H](C(=O)N1CCC[C@H]1Cc1c(-c2ccc(-c3c(C[C@@H]4CCCN4C(=O)[C@@H](NC(=O)[C@H](C)NC)C(C)(C)C)c4ccc(F)cc4n3CCO)cc2)n(CCO)c2cc(F)ccc12)C(C)(C)C", "PROPERTY_LABEL": "IC50", "READING": "10 to 100 nM"}
{"MOLECULE": "CN[C@@H](C)C(=O)N[C@H](C(=O)N1CCC[C@H]1Cc1c[nH]c2ccc(C)cc12)C(C)C", "PROPERTY_LABEL": "IC50", "READING": "< 10 nM"}
{"MOLECULE": "CN[C@@H](C)C(=O)N[C@H](C(=O)N1C[C@@H](OC(C)=O)C[C@H]1Cc1c[nH]c2ccccc12)C(C)C", "PROPERTY_LABEL": "IC50", "READING": "< 10 nM"}
{"MOLECULE": "CN[C@@H](C)C(=O)N[C@H](C(=O)N1CCC[C@H]1Cc1cn(CCOCCn2cc(C[C@@H]3CCCN3C(=O)[C@@H](NC(=O)[C@H](C)NC)C3CCCCC3)c3ccccc32)c2ccccc12)C1CCCCC1", "PROPERTY_LABEL": "IC50", "READING": "10 to 100 nM"}
{"MOLECULE": "CN[C@@H](C)C(=O)N[C@H](C(=O)N1CCC[C@H]1Cc1c[nH]c2ccc(C)cc12)[C@@H](C)O", "PROPERTY_LABEL": "IC50", "READING": "< 10 nM"}
{"MOLECULE": "CN[C@@H](C)C(=O)N[C@H](C(=O)N1CCC[C@H]1Cc1c(-c2ccc(C(=O)OC)cc2)n(CCOCCOCCOC)c2cc(F)ccc12)C(C)(C)C", "PROPERTY_LABEL": "IC50", "READING": "10 to 100 nM"}
{"MOLECULE": "CN[C@@H](C)C(=O)N[C@H](C(=O)N1CCC[C@H]1Cc1c(-c2ccc(N3CCOCC3)cc2)n(CCOCCOCCOC)c2cc(F)ccc12)C(C)(C)C", "PROPERTY_LABEL": "IC50", "READING": "10 to 100 nM"}
{"MOLECULE": "CC(C)[C@H](NC(=O)[C@H](C)N)C(=O)N1CCC[C@H]1Cc1c(-c2ccc(-c3oc4ccccc4c3C[C@@H]3CCCN3C(=O)[C@@H](NC(=O)[C@H](C)N)C(C)C)cc2)[nH]c2ccccc12", "PROPERTY_LABEL": "IC50", "READING": "> 100 nM"}
{"MOLECULE": "CN[C@@H](C)C(=O)N[C@H](C(=O)N1CCC[C@H]1Cc1c(-c2ccc(-c3c(C[C@@H]4CCCN4C(=O)[C@@H](NC(=O)[C@H](C)NC)C(C)C)c4ccc(F)cc4n3CCOC(C)=O)cc2)n(CCOC(C)=O)c2cc(F)ccc12)C(C)C", "PROPERTY_LABEL": "IC50", "READING": "> 1000 nM"}
{"MOLECULE": "CN[C@@H](C)C(=O)N[C@H](C(=O)N1C[C@@H](O)C[C@H]1Cc1c(-c2ccc(-c3[nH]c4ccccc4c3C[C@@H]3C[C@H](O)CN3C(=O)[C@@H](NC(=O)[C@H](C)NC)C(C)(C)C)cc2)[nH]c2ccccc12)C(C)(C)C", "PROPERTY_LABEL": "IC50", "READING": "10 to 100 nM"}

----------
Overview of reported pIC50 across a group of compounds:
biological target: BIR-3 domain of XIAP (Homo sapiens, UniProt P98170); experiment: Fluorescence polarization binding assay, XIAP BIR-3 domain
Sequence (P98170 241-356 limits assumed): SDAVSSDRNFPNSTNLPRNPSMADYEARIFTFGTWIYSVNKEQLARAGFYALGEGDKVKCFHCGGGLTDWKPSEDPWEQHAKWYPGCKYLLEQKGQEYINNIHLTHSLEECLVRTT
pIC50: −log10 of the molar value.

{"SMILES_NOTATION": "CN[C@@H](C)C(=O)N[C@H](C(=O)N1CCC[C@H]1Cc1c(-c2ccc(-c3c(C[C@@H]4CCCN4C(=O)[C@@H](NC(=O)[C@H](C)NC)C(C)C)c4ccc(F)cc4n3CCOC(C)=O)cc2)n(CCOC(C)=O)c2cc(F)ccc12)C(C)C", "pIC50": "< 6.00"}
{"SMILES_NOTATION": "CN[C@@H](C)C(=O)N[C@H](C(=O)N1C[C@@H](O)C[C@H]1Cc1c(-c2ccc(-c3[nH]c4ccccc4c3C[C@@H]3C[C@H](O)CN3C(=O)[C@@H](NC(=O)[C@H](C)NC)C(C)(C)C)cc2)[nH]c2ccccc12)C(C)(C)C", "pIC50": "7.00 to 8.00"}
{"SMILES_NOTATION": "CN[C@@H](C)C(=O)N[C@H](C(=O)N1C[C@@H](OC(C)=O)C[C@H]1Cc1c[nH]c2ccccc12)C(C)(C)C", "pIC50": "< 7.00"}
{"SMILES_NOTATION": "CN[C@@H](C)C(=O)N[C@H](C(=O)N1CCC[C@H]1Cc1c(-c2ccc(C(=O)OC)cc2)n(CCOCCOCCOC)c2cc(F)ccc12)C(C)(C)C", "pIC50": "7.00 to 8.00"}
{"SMILES_NOTATION": "CC(C)[C@H](NC(=O)CN)C(=O)N1C[C@@H](Oc2ccccc2)C[C@H]1Cc1coc2ccccc12", "pIC50": "< 7.00"}
{"SMILES_NOTATION": "CN[C@@H](C)C(=O)N[C@H](C(=O)N1CCC[C@H]1Cc1c[nH]c2ccc(C)cc12)[C@@H](C)O", "pIC50": "< 7.00"}
{"SMILES_NOTATION": "CC(C)[C@H](NC(=O)[C@H](C)N)C(=O)N1CCC[C@H]1Cc1c(-c2ccc(-c3oc4ccccc4c3C[C@@H]3CCCN3C(=O)[C@@H](NC(=O)[C@H](C)N)C(C)C)cc2)[nH]c2ccccc12", "pIC50": "< 7.00"}
{"SMILES_NOTATION": "CC(C)[C@@H](NC(=O)[C@@H](C)N)C(=O)N1CCC[C@@H]1Cc1c(-c2ccc(-c3oc4ccccc4c3C[C@H]3CCCN3C(=O)[C@H](NC(=O)[C@@H](C)N)C(C)C)cc2)[nH]c2ccccc12", "pIC50": "< 7.00"}
{"SMILES_NOTATION": "CN[C@@H](C)C(=O)N[C@H](C(=O)N1CCC[C@H]1Cc1c(-c2ccc(N3CCOCC3)cc2)n(CCOCCOCCOC)c2cc(F)ccc12)C(C)(C)C", "pIC50": "7.00 to 8.00"}
{"SMILES_NOTATION": "CN[C@@H](C)C(=O)N[C@H](C(=O)N1CCC[C@H]1Cc1c(-c2ccc(F)cc2)n(CCOCCOCCOC)c2cc(F)ccc12)C(C)(C)C", "pIC50": "7.00 to 8.00"}
{"SMILES_NOTATION": "CN[C@@H](C)C(=O)N[C@H](C(=O)N1CCC[C@H]1Cc1c[nH]c2ccc(C)cc12)C(C)C", "pIC50": "7.00 to 8.00"}
